Values from patent US20150284331A1

Listed here are compounds together with their documented butyrylcholinesterase inhibitory activity inhibition ratio (%).
- Target under test: butyrylcholinesterase (Rattus norvegicus)
- Construct: Butyrylcholinesterase: rat serum; from tissue; host or cells: rat serum
- Sequence (Q9JKC1 24-597): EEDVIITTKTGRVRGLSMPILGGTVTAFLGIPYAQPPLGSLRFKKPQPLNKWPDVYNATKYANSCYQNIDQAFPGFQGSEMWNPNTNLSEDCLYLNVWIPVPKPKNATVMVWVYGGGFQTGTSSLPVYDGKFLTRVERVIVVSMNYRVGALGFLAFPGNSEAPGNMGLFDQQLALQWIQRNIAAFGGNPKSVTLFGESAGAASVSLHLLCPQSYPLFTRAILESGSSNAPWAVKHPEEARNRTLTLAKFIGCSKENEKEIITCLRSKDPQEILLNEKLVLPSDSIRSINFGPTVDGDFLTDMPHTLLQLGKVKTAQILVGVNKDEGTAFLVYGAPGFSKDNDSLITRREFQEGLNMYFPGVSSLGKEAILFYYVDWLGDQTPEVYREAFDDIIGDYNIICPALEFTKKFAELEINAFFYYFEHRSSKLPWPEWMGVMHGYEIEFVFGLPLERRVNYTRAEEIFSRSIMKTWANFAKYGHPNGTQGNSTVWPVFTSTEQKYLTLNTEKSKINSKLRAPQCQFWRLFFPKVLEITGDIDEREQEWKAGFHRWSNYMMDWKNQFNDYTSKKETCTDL
- Experiment notes: inhibition of butyrylcholinesterase (rat serum)
- Format: biochemical
- Condition: rat serum enzyme; final concentration 4×10−5 mol/L
Number only, in %; omit the unit.

Sample answers from the record:
| Compound | Recorded result |
| --- | --- |
| COc1cc2c(cc1OC)C(=O)C(CC1(F)CC3CCC(C1)N3Cc1cccc(C(F)(F)F)c1)C2 (stereo not drawn) | 0.09 |
| COc1cc2c(cc1OC)C(=O)C(CC1(F)CCN(CC3CCC3)CC1)C2 (stereo not drawn) | 35.06 |

Input COc1cc2c(cc1OC)C(=O)C(CC1(F)CC3CCC(C1)N3Cc1cccc(Br)c1)C2 (stereo not drawn) . Output butyrylcholinesterase inhibitory activity inhibition ratio (%): 15.26

Input COc1cc2c(cc1OC)C(=O)C(CC1(F)CCN(Cc3ccc([N+](=O)[O-])cc3)CC1)C2 (stereo not drawn) . Output butyrylcholinesterase inhibitory activity inhibition ratio (%): 46.68

Input COc1cc2c(cc1OC)C(=O)C(CC1(F)CCN(C(=O)c3ccccc3)CC1)C2 (stereo not drawn) . Output butyrylcholinesterase inhibitory activity inhibition ratio (%): 0.00

Input COc1cc2c(cc1OC)C(=O)C(CC1(F)CCN(Cc3cccc(F)c3)CC1)C2.Cl (stereo not drawn) . Output butyrylcholinesterase inhibitory activity inhibition ratio (%): 72.57

Input COc1cc2c(cc1OC)C(=O)C(CC1(F)CCN(Cc3ccccc3F)C(C(=O)O)C1)C2 (stereo not drawn) . Output butyrylcholinesterase inhibitory activity inhibition ratio (%): 71.58

Input COc1cc2c(cc1OC)C(=O)C(CC1(F)CCN(Cc3cccc(Br)c3)CC1)C2 (stereo not drawn) . Output butyrylcholinesterase inhibitory activity inhibition ratio (%): 12.76

Input COc1cc2c(cc1OC)C(=O)C(CC1(F)CCN(CC3CCCC3)CC1)C2 (stereo not drawn) . Output butyrylcholinesterase inhibitory activity inhibition ratio (%): 46.68
